# System under test: GABAB receptor (Homo sapiens, UniProt O75899+Q9UBS5)
# Sequence (Q9UBS5 15-961 limits assumed): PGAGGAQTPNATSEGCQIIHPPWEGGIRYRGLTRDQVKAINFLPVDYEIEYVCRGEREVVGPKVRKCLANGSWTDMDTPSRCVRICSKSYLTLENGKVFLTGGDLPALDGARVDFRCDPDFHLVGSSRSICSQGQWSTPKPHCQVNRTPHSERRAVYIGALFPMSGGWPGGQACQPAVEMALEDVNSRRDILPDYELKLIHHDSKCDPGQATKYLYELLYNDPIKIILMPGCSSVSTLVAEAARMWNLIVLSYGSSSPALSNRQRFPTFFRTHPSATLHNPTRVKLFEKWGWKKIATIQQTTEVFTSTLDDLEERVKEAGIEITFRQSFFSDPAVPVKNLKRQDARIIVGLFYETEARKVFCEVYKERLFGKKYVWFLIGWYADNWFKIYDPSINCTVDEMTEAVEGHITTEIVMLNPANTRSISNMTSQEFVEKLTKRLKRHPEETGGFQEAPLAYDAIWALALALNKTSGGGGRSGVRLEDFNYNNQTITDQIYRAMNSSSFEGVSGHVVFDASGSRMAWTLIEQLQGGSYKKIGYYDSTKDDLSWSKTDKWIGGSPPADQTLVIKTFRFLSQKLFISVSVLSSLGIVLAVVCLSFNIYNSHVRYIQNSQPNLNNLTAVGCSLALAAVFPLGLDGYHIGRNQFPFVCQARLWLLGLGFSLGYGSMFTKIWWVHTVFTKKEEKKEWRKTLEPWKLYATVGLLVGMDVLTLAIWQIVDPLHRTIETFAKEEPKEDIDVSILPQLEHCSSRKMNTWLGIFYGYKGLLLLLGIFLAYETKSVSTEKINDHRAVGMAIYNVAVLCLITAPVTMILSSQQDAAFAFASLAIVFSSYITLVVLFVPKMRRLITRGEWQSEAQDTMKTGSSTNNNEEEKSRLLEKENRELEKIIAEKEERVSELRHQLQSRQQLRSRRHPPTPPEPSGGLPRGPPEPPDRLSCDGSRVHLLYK
# Sequence (O75899 42-941): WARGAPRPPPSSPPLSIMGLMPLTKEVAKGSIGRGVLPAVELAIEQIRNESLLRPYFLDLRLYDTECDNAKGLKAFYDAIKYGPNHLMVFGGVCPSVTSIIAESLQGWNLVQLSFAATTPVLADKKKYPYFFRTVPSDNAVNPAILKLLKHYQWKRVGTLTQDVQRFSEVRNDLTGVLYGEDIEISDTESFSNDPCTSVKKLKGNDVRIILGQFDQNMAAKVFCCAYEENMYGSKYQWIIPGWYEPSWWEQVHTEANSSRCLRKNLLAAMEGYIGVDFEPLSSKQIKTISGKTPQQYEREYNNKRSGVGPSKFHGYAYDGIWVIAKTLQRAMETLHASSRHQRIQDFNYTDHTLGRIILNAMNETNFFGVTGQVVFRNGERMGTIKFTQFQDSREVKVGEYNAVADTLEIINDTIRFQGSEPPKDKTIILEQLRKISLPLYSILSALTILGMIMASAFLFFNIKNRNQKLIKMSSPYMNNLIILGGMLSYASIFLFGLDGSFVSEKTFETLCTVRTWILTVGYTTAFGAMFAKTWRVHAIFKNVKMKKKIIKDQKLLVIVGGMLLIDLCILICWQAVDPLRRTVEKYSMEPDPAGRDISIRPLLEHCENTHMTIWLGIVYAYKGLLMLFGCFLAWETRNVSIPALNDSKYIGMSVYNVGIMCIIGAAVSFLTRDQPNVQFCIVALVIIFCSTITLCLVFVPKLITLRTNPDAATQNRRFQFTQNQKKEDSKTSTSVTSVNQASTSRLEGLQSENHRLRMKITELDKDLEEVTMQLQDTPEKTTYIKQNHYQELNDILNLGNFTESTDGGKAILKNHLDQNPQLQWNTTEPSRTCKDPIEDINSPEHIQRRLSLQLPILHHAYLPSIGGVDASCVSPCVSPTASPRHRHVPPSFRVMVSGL
# Assay remarks: [35S]-GTPγS binding assay with GABA in the presence or absence of PAM
# Recorded conditions: log EC50 for GABA plotted against log concentration of the positive allosteric modulator; read-out: EC50 (potency of the positive allosteric modulator)

- Compound: "CCOC(=O)c1c(NC(=O)C(CC)c2ccccc2)nc(SC)n1-c1ccccc1 (stereo not shown)"
  EC50 (nM): 600
- Compound: "CCCCC(C)(C)OC(=O)c1c(NC(=O)c2ccc(Cl)cc2)nc(SC)n1-c1ccccc1"
  EC50 (nM): 300
- Compound: "COCC(C)(C)OC(=O)c1c(NC(=O)C2COc3ccccc3O2)nc(OC)n1-c1ccccc1 (stereo not shown)"
  EC50 (nM): 300
- Compound: "CCOC(=O)c1c(NC(=O)c2ccc(Cl)c(Cl)c2)nc(SC)n1Cc1ccccc1"
  EC50 (nM): 2300

The values you see were collected from patent US7718686B2.
